# STUDY SYSTEM: ScBbc1
# PROTOCOL TEXT: SPOT peptide array binding signal intensity (averaged, normalized) (arbitrary units (background-subtracted, floor 0; scale differs between SH3 domains)); higher = stronger binding of the SH3 domain to the peptide
Known SPOT peptide array binding signal intensity of a selection of binders
PROPERTY LABEL: SPOT peptide array binding signal intensity

>  <BINDER>
SSSSTPPTLPPRRIE

>  <COMPARISON SYMBOL>
=

>  <QUANTITATIVE READOUT>
61.5

$$$$
>  <BINDER>
HVRRSILALPLGVLL

>  <COMPARISON SYMBOL>
≤

>  <QUANTITATIVE READOUT>
0

$$$$
>  <BINDER>
VQPTAAPATPPRHIS

>  <COMPARISON SYMBOL>
=

>  <QUANTITATIVE READOUT>
1.75

$$$$
>  <BINDER>
FSRRQSMDIPSKNRN

>  <COMPARISON SYMBOL>
=

>  <QUANTITATIVE READOUT>
34

$$$$
>  <BINDER>
QHQQRQPKRPKRYSL

>  <COMPARISON SYMBOL>
=

>  <QUANTITATIVE READOUT>
251

$$$$
>  <BINDER>
SSAAPPPPPRRATPE

>  <COMPARISON SYMBOL>
=

>  <QUANTITATIVE READOUT>
0.5

$$$$
>  <BINDER>
KTKQQKPAIPQKKSF

>  <COMPARISON SYMBOL>
=

>  <QUANTITATIVE READOUT>
3

$$$$
>  <BINDER>
FVLRYYILIPHEQWD

>  <COMPARISON SYMBOL>
≤

>  <QUANTITATIVE READOUT>
0

$$$$
>  <BINDER>
QQEQNTPPLPPKPKS

>  <COMPARISON SYMBOL>
=

>  <QUANTITATIVE READOUT>
2.5

$$$$
>  <BINDER>
GERSRPLVISILSSA

>  <COMPARISON SYMBOL>
=

>  <QUANTITATIVE READOUT>
4

$$$$
>  <BINDER>
NRARYLPQNPDIIAG

>  <COMPARISON SYMBOL>
≤

>  <QUANTITATIVE READOUT>
0

$$$$
>  <BINDER>
PVLPPPRSPNRPTLS

>  <COMPARISON SYMBOL>
=

>  <QUANTITATIVE READOUT>
186

$$$$
>  <BINDER>
RKQRSIPLSPIVPES

>  <COMPARISON SYMBOL>
=

>  <QUANTITATIVE READOUT>
20.2

$$$$
>  <BINDER>
HPRFVSPRIPSRIVK

>  <COMPARISON SYMBOL>
=

>  <QUANTITATIVE READOUT>
283

$$$$
>  <BINDER>
LPPPPPPPPPPPLPQ

>  <COMPARISON SYMBOL>
=

>  <QUANTITATIVE READOUT>
2.5

$$$$
